The measured values listed here are drawn from patent US20260069689A1.

- targetUnderTest: SARS-COV-2 RBD-MMH (SARS-CoV-2)
- testProtocol: SPR 37C, run with dissociation at pH 7.4
Response field label: string, one of T (koff strictly below 0.0005 s⁻¹) or F.

Given the entry mAb15165 (antibody, V domains shown) VH: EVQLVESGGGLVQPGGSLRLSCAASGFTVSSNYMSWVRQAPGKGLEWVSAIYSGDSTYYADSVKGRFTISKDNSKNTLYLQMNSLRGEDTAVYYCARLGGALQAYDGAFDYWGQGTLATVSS VL: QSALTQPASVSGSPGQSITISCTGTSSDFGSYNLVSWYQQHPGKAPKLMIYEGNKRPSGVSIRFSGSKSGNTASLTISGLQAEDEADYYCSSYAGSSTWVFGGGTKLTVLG , would its reported koff be below 0.0005 s⁻¹?
F

Moving on to the next binder: mAb15166 (antibody, V domains shown) VH: EVQLVESGGGLVQPGGSLRLSCAASGFTVTSNYMSWVRQAPGKGLEWVSAIYSGESTYYADSVKGRFTISRDSSKNTLYLQMNSLRVEDTAVYYCASIHDYSNYVGGFDPWGQGTLVTVSS VL: QSALTQPASVSGSPGQSITISCTGPSSDFGSYNLVSWYQQHPGKAPKLMIYEGTKRPSGVSNRFSGSKSGNTASLTISGLQAEDEADYYCSSYAGSSTWVFGGGTKLTVLG
F

Consider next the binder mAb15170 (antibody, V domains shown) VH: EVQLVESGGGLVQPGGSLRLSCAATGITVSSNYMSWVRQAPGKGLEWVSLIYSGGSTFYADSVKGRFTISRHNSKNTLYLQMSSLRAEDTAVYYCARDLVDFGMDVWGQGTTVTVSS VL: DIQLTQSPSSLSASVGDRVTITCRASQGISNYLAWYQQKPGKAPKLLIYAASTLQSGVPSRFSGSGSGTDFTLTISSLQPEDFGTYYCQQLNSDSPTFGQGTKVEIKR in the same way.
T

Lookup mAb15160 (antibody, V domains shown) VH: EVQLVESGGGLVQPGGSLRLSCSASGFTFSRYAMYWVRQAPGKGLEYVSAISSDGGSTYDADSVKGRFTISRANSKNTLYLQMSSLRAEDTAVYYCVKGLRELLYYYYGMDVWGQGTTVTVSS VL: DIQMTQSPSSLSASVGDRVTITCRAGQSISSFLNWYQQKPGKAPKLLIYAASSLQSGVPSRFSGSGSGTDFTLTISSLQPEDFATYYCQQSYITPFTFGPGTKVDIKR
F
